ASSAY_DETAILS: Stability study of levorotatory enantiomer of compounds in solvent (MCT)
Assay type: physicochemical
TEST_CONDITIONS: dextrorotatory form, MCT solution, 25° C., Day 15
Items are presented alongside their recorded Isomer (%).
Please respond with the number in % and leave the unit unwritten.

Solved cases (3 shown):
CCOC(=O)OC(CC)OC(=O)[C@H]1CCn2c(C(=O)c3ccccc3)ccc21 (stereo partly drawn) [N15(S)]
4.72
CC(C)OC(=O)OC(C)OC(=O)[C@H]1CCn2c(C(=O)c3ccccc3)ccc21 (stereo partly drawn) [N2(S)]
5.86
CCC(OC(=O)OC(C)C)OC(=O)[C@H]1CCn2c(C(=O)c3ccccc3)ccc21 (stereo partly drawn) [N16(S)]
2.6

Tell us which Isomer (%) value is on record for CCOC(=O)OC(C)OC(=O)[C@H]1CCn2c(C(=O)c3ccccc3)ccc21 (stereo partly drawn) [N12(S)] 3.09

---

Items are presented alongside their recorded Content of ketorolac %.
TEST_CONDITIONS: human, 15 min, 97.6 µM
Please respond with the number in % and leave the unit unwritten.

Solved cases (3 shown):
CC(C)OC(=O)OC(C)OC(=O)C1CCn2c(C(=O)c3ccccc3)ccc21 (stereo not shown)
8.860
CC(C)OC(=O)C1CCn2c(C(=O)c3ccccc3)ccc21 (stereo not shown) [N11, reference compound]
0
CCOC(=O)OC(CC)OC(=O)C1CCn2c(C(=O)c3ccccc3)ccc21 (stereo not shown)
23.933

Tell us which Content of ketorolac % value is on record for CCC(OC(=O)OC(C)C)OC(=O)C1CCn2c(C(=O)c3ccccc3)ccc21 (stereo not shown) 9.847

Tell us which Content of ketorolac % value is on record for CCOC(=O)OC(C)OC(=O)C1CCn2c(C(=O)c3ccccc3)ccc21 (stereo not shown) 34.203

Tell us which Content of ketorolac % value is on record for CCCCCCCCOC(=O)OC(C)OC(=O)C1CCn2c(C(=O)c3ccccc3)ccc21 (stereo not shown) 0

Tell us which Content of ketorolac % value is on record for CCC(=O)OC(CC)OC(=O)C1CCn2c(C(=O)c3ccccc3)ccc21 (stereo not shown) 19.140

---

ASSAY_DETAILS: Stability study of levorotatory enantiomer of compounds in solvent (MCT)
Format: physicochemical
TEST_CONDITIONS: MCT solution, 60° C., Day 15
OBSERVABLE: Ketorolac (%)
Please respond with the number in % and leave the unit unwritten.

Solved cases (3 shown):
CCC(OC(=O)OC(C)C)OC(=O)[C@H]1CCn2c(C(=O)c3ccccc3)ccc21 (stereo partly drawn) [N16(S)]
0.12
CC(C)OC(=O)OC(C)OC(=O)[C@H]1CCn2c(C(=O)c3ccccc3)ccc21 (stereo partly drawn) [N2(S)]
0.49
CCOC(=O)OC(C)OC(=O)[C@H]1CCn2c(C(=O)c3ccccc3)ccc21 (stereo partly drawn) [N12(S)]
0.23

Next up:
Tell us which Ketorolac (%) value is on record for CCOC(=O)OC(CC)OC(=O)[C@H]1CCn2c(C(=O)c3ccccc3)ccc21 (stereo partly drawn) [N15(S)] 0.17

---

ASSAY_DETAILS: Stability study of levorotatory enantiomer of compounds in solvent (MCT)
Format: physicochemical
TEST_CONDITIONS: MCT solution, 25° C., Day 15
OBSERVABLE: Purity (%)
Please respond with the number in % and leave the unit unwritten.

Solved cases (3 shown):
CCOC(=O)OC(C)OC(=O)[C@H]1CCn2c(C(=O)c3ccccc3)ccc21 (stereo partly drawn) [N12(S)]
99.61
CCOC(=O)OC(CC)OC(=O)[C@H]1CCn2c(C(=O)c3ccccc3)ccc21 (stereo partly drawn) [N15(S)]
99.41
CC(C)OC(=O)OC(C)OC(=O)[C@H]1CCn2c(C(=O)c3ccccc3)ccc21 (stereo partly drawn) [N2(S)]
99.13

Next up:
Tell us which Purity (%) value is on record for CCC(OC(=O)OC(C)C)OC(=O)[C@H]1CCn2c(C(=O)c3ccccc3)ccc21 (stereo partly drawn) [N16(S)] 99.63

---

TEST_CONDITIONS: human, 30 min, 97.6 µM
Items are presented alongside their recorded Content of ketorolac %.
Please respond with the number in % and leave the unit unwritten.

CCOC(=O)OC(CC)OC(=O)C1CCn2c(C(=O)c3ccccc3)ccc21 (stereo not shown) [N15]
50.917

Tell us which Content of ketorolac % value is on record for CCOC(=O)OC(C)OC(=O)C1CCn2c(C(=O)c3ccccc3)ccc21 (stereo not shown) [N12] 53.297

Tell us which Content of ketorolac % value is on record for CC(C)OC(=O)OC(C)OC(=O)C1CCn2c(C(=O)c3ccccc3)ccc21 (stereo not shown) [N2] 20.993

Tell us which Content of ketorolac % value is on record for CCC(OC(=O)OC(C)C)OC(=O)C1CCn2c(C(=O)c3ccccc3)ccc21 (stereo not shown) [N16] 28.653

Tell us which Content of ketorolac % value is on record for CCCCCCCCOC(=O)OC(C)OC(=O)C1CCn2c(C(=O)c3ccccc3)ccc21 (stereo not shown) [N26] 3.89

Tell us which Content of ketorolac % value is on record for CCC(=O)OC(CC)OC(=O)C1CCn2c(C(=O)c3ccccc3)ccc21 (stereo not shown) [N8] 36.277

Tell us which Content of ketorolac % value is on record for CC(C)OC(=O)C1CCn2c(C(=O)c3ccccc3)ccc21 (stereo not shown) [N11, reference compound] 0

---

TEST_CONDITIONS: human, 120 min, 97.6 µM
Items are presented alongside their recorded Content of the compound %.
Returns: string containing the number followed by the unit.

Solved cases (5 shown):
CCCCCCCCOC(=O)OC(C)OC(=O)C1CCn2c(C(=O)c3ccccc3)ccc21 (stereo not drawn)
68.99 ± 1.45%
CC(C)OC(=O)OC(C)OC(=O)C1CCn2c(C(=O)c3ccccc3)ccc21 (stereo not drawn)
12.573 ± 0.260%
CCOC(=O)OC(C)OC(=O)C1CCn2c(C(=O)c3ccccc3)ccc21 (stereo not drawn)
0%
CCOC(=O)OC(CC)OC(=O)C1CCn2c(C(=O)c3ccccc3)ccc21 (stereo not drawn)
0.893 ± 0.051%
CCC(OC(=O)OC(C)C)OC(=O)C1CCn2c(C(=O)c3ccccc3)ccc21 (stereo not drawn)
7.047 ± 0.374%

Next up:
Tell us which Content of the compound % value is on record for CCC(=O)OC(CC)OC(=O)C1CCn2c(C(=O)c3ccccc3)ccc21 (stereo not drawn) 0%

---

ASSAY_DETAILS: High temperature stability study of compounds (60° C.)
Format: physicochemical
TEST_CONDITIONS: related substance, in the dark, Day 10
Items are presented alongside their recorded Ketorolac (%).
Please respond with the number in % and leave the unit unwritten.

CC(C)OC(=O)OC(OC(=O)C1CCn2c(C(=O)c3ccccc3)ccc21)C(C)C (stereo not drawn) [N19]
0.12
CCOC(=O)OC(OC(=O)C1CCn2c(C(=O)c3ccccc3)ccc21)C(C)C (stereo not drawn) [N18]
0.26
CCC(=O)OC(OC(=O)C1CCn2c(C(=O)c3ccccc3)ccc21)C(C)C (stereo not drawn) [N9]
0.30
CC(C)OC(=O)OC(C)OC(=O)C1CCn2c(C(=O)c3ccccc3)ccc21 (stereo not drawn) [N2]
0.05
CC(OC(=O)C(C)C)OC(=O)C1CCn2c(C(=O)c3ccccc3)ccc21 (stereo not drawn) [N6]
0.17

Tell us which Ketorolac (%) value is on record for CCC(OC(=O)OC(C)C)OC(=O)C1CCn2c(C(=O)c3ccccc3)ccc21 (stereo not drawn) [N16] 0.07

Tell us which Ketorolac (%) value is on record for CCC(=O)OC(C)OC(=O)C1CCn2c(C(=O)c3ccccc3)ccc21 (stereo not drawn) [N4] 0.14

Tell us which Ketorolac (%) value is on record for CCC(OC(C)=O)OC(=O)C1CCn2c(C(=O)c3ccccc3)ccc21 (stereo not drawn) [N3] 0.17

Tell us which Ketorolac (%) value is on record for CCOC(=O)OC(CC)OC(=O)C1CCn2c(C(=O)c3ccccc3)ccc21 (stereo not drawn) [N15] 0.14

---

Items are presented alongside their recorded Isomer (%).
ASSAY_DETAILS: Stability study of levorotatory enantiomer of compounds in solvent (MCT)
Type: physicochemical
TEST_CONDITIONS: dextrorotatory form, MCT solution, 60° C., Day 5
Protocol: 2. Test method: the samples were prepared according to Table 2, wherein each sample was dispensed into 10 vials according to the lofting volume, and the samples were lofted according to Table 3. 4. The related substance was determined according to high performance liquid chromatography (General Chapter 0512, China Pharmacopoeia, 2015 Edition). […]
Please respond with the number in % and leave the unit unwritten.

Solved cases (3 shown):
CCOC(=O)OC(CC)OC(=O)[C@H]1CCn2c(C(=O)c3ccccc3)ccc21 (stereo partly drawn) [N15(S)]
4.59
CCC(OC(=O)OC(C)C)OC(=O)[C@H]1CCn2c(C(=O)c3ccccc3)ccc21 (stereo partly drawn) [N16(S)]
2.48
CC(C)OC(=O)OC(C)OC(=O)[C@H]1CCn2c(C(=O)c3ccccc3)ccc21 (stereo partly drawn) [N2(S)]
5.7

Tell us which Isomer (%) value is on record for CCOC(=O)OC(C)OC(=O)[C@H]1CCn2c(C(=O)c3ccccc3)ccc21 (stereo partly drawn) [N12(S)] 3.12

Origin of the recorded values: patent US12649746B2
